Cited source: paper PMC12136788

Listing: binding signal of selected binders
# assayed.target: T1, UNK ZnF1-3 (human, UniProt Q9C0B0 31-174)
# T1 sequence: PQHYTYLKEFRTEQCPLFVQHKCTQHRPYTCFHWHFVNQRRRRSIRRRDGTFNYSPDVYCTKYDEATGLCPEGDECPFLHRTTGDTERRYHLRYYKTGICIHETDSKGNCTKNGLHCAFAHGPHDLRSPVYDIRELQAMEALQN
# protocol.description: nsRBNS (natural sequence RNA bind-n-seq); RBNS binding buffer (assumed for nsRBNS): 25 mM Tris pH 7.5, 150 mM KCl, 3 mM MgCl2, 0.01% Triton X-100, 500 ug/ml BSA, 20 U/ml SUPERase-In, 4 C; UNK is unkempt and MSI1 is Musashi-1; names of the RNAs are library labels; protein concentration not given here; high values mean tight binding
The full ranking holds about 24,000 sequences; the median of “enrichment r” is about 0.99, and the highest 2% start at about 3.7. For the sample, the highest values were picked, then their nearest neighbours and some sequences at random.
All answers are understood in enrichment R, so give the number only.

Example binders with recorded binding signal:
[
  {
    "binder": "chr7:92085846:92085847:+_ENSG00000157259_ENST00000287957|hu_mus|FALSE|FALSE (ssRNA) RNA: GGGAGUUCUACAGUCCGACGAUCGUUAAAACUGAGGCUUUAUACCUGCGAAGUAAGUAUGUCCCAGGUUUGGUUUUGUAACUACAAGUGGUUGGCAACUGUUUCCUUAAUAGUUAUCGCAGGAGUAGGUCCAACGUGAGUCCACAACAGAGGAUUGAGCAUCA",
    "binding signal [enrichment R]": 0.838
  },
  {
    "binder": "chr7:106631192:106631193:-_ENSMUSG00000030744_ENSMUST00000032998|mus_mus|motif|central (ssRNA) RNA: GGGAGUUCUACAGUCCGACGAUCCUUCAGCCAGCUCCCGAGUGAGAAAUUCAUUCAGCUCAGCUUUGAAGAUGCCAUCAGCGGCAAACUUCCUCUUCUUGGAAAUCUGCACCGCCAUCUUGCAGCCGCGCGCCGCUGAAAGGACAACAGAGGAUUGAGCAUCA",
    "binding signal [enrichment R]": 0.767
  },
  {
    "binder": "chr17:56552419:56552420:-_ENSMUSG00000013236_ENSMUST00000086828|mus_mus|mus_mus_mus_hu_False|28_38 (ssRNA) RNA: GGGAGUUCUACAGUCCGACGAUCAAAAAAUACACUAUUUAAAAAAAAUGAAAUGUCACGGGAUACAGUUACACUGAGAGUUUUAAAAGAAAGCUGGAAAAAAAAUGUUGCCAAAAGUCCCCAGGCUGCAGAGCGGGGAGGAGCCAACAGAGGAUUGAGCAUCA",
    "binding signal [enrichment R]": 5.83
  },
  {
    "binder": "31508769_31511148_1743_CDS_ENSG00000113360_ENST00000513349|human|control|control (ssRNA) RNA: GGGAGUUCUACAGUCCGACGAUCAGGGUGGGCCUUUUUGCGUUUGAUUUCUGCAAUAACGUCAAAAACUUCAGAGUCUGAGCUGCUAGAACAGGUGCUGUCCUCAUCAGACUCACACUCGGAUUCACUGGAACUCUCUAAAUCCAACAGAGGAUUGAGCAUCA",
    "binding signal [enrichment R]": 0.49
  }
]

Request: Tell us which binding signal value is on record for chr17:57737884:57737885:+_ENSG00000141367_ENST00000269122|hu_mus|motif|central (ssRNA) RNA: GGGAGUUCUACAGUCCGACGAUCGUUUCCCUGGGCGAAGAGAGCAUUAAAUUUCCGGGCAAAGAGUUCUUCAGCACCAGCGGAGUUGUUCCGCACAGCCAUUCUCAGAGCCAAGUCAGGAUUUUGUAGGACAUUGGUGAUAUACAACAGAGGAUUGAGCAUCA
Result: 2.06

Request: Tell us which binding signal value is on record for chr15:63447868:63447869:-_ENSG00000185088_ENST00000411926|hu_hu|FALSE|FALSE (ssRNA) RNA: GGGAGUUCUACAGUCCGACGAUCCCCUUCUGUGAGUCUGGCCUUUCCUCCUGUAGGCUGGCACAACACUGUUGAACAACCUACACAAAGAACCACUGUCUGAGCAUGGCUGAAAACCGUGGUGAUCUUGUAGCAACCUGGACACAACAGAGGAUUGAGCAUCA
Result: 0.955

Request: Tell us which binding signal value is on record for chr7:54825262:54825263:-_ENSG00000132432_ENST00000352861|hu_hu|hu_hu_hu_mus_False|48_78 (ssRNA) RNA: GGGAGUUCUACAGUCCGACGAUCCUGCCGGCUGGGCUCCACAAACUGCAUUACCUGCAUGACUGCCGUUGGAUGGCGGAUUGAGAGUGCCAGGGACCGUAGCUCAGGAGAGAACCGAGCCCAACGGAACCGGAAGCUGGCAACCAACAGAGGAUUGAGCAUCA
Result: 1.55
